From: PubChem BioAssay (NCI)

system: SNB-75 CNS; assay: NCI tumour cell line growth inhibition, 48 h
parameter measured: TGI (µM)
Only the number, expressed in µM, is required.

Answered examples (8):
compound	assay system	TGI / µM
COc1cc2c(cc1OCCCOC1=C=C=C(c3ccc4c(c3)c3cc(-c5ccc(OCCCOc6cc7c(cc6OC)C(=O)N6CCC[C@H]6C=N7)cc5)ccc3n4S(=O)(=O)c3ccc(C)cc3)C=C1)N=C[C@@H]1CCCN1C2=O	SNB-75 CNS	5.33
N#CC(C#N)=Cc1c(O)ccc2ccccc12	SNB-75 CNS	17.9
COC(=O)c1nc(-c2ccc3c(n2)C(=O)C(N)=C(OC)C3=O)c(N)c(-c2ccc(OC)c(OC)c2O)c1C	SNB-75 CNS	3.73
CN(C)c1ccc(/C=C/C(=O)C(C)(C)C)cc1Br	SNB-75 CNS	70.3
CNC(=O)c1c(NC(=O)c2cccc(C(F)(F)F)c2)sc2c1CCC(=O)C2	SNB-75 CNS	5.27
CCN(CC)c1ccc(N=C2C=CC(=O)c3ncccc32)c(C)c1	SNB-75 CNS	28.9
O=C1c2ccccc2-c2c1c1ccc([N+](=O)[O-])cc1c(=O)n2CCNCCCNCCn1c2c(c3ccc([N+](=O)[O-])cc3c1=O)C(=O)c1ccccc1-2	SNB-75 CNS	2.41
C[N+](C)([O-])CCCNc1c2ccccc2nc2cccc([N+](=O)[O-])c12	SNB-75 CNS	1.4

Looking up COc1ccc(-c2nsc3c2NC(=O)CC3c2ccc3c(c2)OCO3)cc1 (centres undefined) , I see its TGI listed as 9.97

====

Reported GI50 values for the following molecules.
test system: HCC-2998 colon; assay: NCI tumour cell line growth inhibition, 48 h

Here are 5 molecules together with their reported answers.
molecule	GI50
N#Cc1cccc(C(=O)c2cnn(-c3ccc(F)cc3)c2N)c1	> 25000 nM
CCCCCCCCCCCCCCCC(=O)OCC1OC(n2cnc3c(=S)nc(N)[nH]c32)C(OC(=O)CCCCCCCCCCCCCCC)C1OC(=O)CCCCCCCCCCCCCCC (centres undefined)	6880 nM
O=C(Nc1ccc(Cl)cc1)c1cc2c(cc1O)[nH]c1ccccc12	2000 nM
O=C(Nc1ncc(Cc2ccccc2)s1)c1ccc2c(c1)OCCCO2	885 nM
CN(C)c1ccc(C(=O)c2ccc(N(C)C)c(N)c2)cc1N	3900 nM

Looking up CCN(CC)CCOc1ccc(Nc2ncc3cc(-c4c(Cl)cccc4Cl)c(=O)n(CCOC)c3n2)cc1 , I found its GI50 recorded as 1250 nM

COc1ccc(Nc2ncccc2/C=C/C(=O)c2cc(OC)c(OC)c(OC)c2)cc1 has a reported GI50 of 1680 nM

The reported value for Nc1ccc(N=Nc2ccccc2)c(N)n1 in terms of GI50 is 24800 nM

Memo: COc1ccc(Nc2ccnc(NCCNc3ccnc4cc(Cl)ccc34)n2)cc1 , reported GI50: 1500 nM

====

test system: HT29 colon; assay: NCI tumour cell line growth inhibition, 48 h
parameter measured: TGI

Some solved entries appear below for comparison.
molecule	TGI
COc1ccc(C(O)c2cc3c(N)c(C(=O)Nc4cccc(Cl)c4C)sc3nc2C)cc1 (stereo unspecified)	1.72 µM
CCN(CC)CCOc1ccc(Nc2ncc3cc(-c4c(Cl)cccc4Cl)c(=O)n(CCOC)c3n2)cc1	2.27 µM
O=C(Nc1c(Cl)cc([N+](=O)[O-])cc1Cl)C(=O)C1C(=O)NC(=S)NC1=O	> 100 µM
O=c1[nH]c2cc3cccnc3c(Cl)c2nc1C(F)(F)F	> 100 µM

// sample N#CC(C#N)=Cc1c(O)ccc2ccccc12 , its TGI was 41.1 µM

Short answer for O=S(=O)([O-])[O-].[Cl-].[NH2-].[NH2-].[NH2-].[NH2-].[Ru+3].c1ccc(-c2cccnc2)cc1 : TGI was > 100 µM

====

tested on: COLO 205 colon; test: NCI tumour cell line growth inhibition, 48 h
Tag: class 1 if measured TGI is not below 20 µM, class 0 if it is.

INPUT: Determine whether this compound has TGI no lower than 20 µM: O=C(OCCN1CCCCC1)C(c1ccccc1)C1(O)CCSCC1 (stereo unspecified)
OUTPUT: class 1

INPUT: Kindly determine if TGI recorded for CC(=O)O[C@H]1CC[C@@]2(C)C(CC[C@]3(C)C2CC[C@]2(C)Oc4c(C)cc(O)cc4C[C@@H]23)C1(C)C (stereo partly specified) is above or exactly 20 µM.
OUTPUT: class 1

INPUT: Identify whether the reported TGI of the following compound is 20 µM or greater: CN(C)c1ccc(/C=C/C(=O)C(C)(C)C)cc1Br
OUTPUT: class 1

INPUT: Answer whether TGI of C=C1C(=O)O[C@H]2C/C(C)=C/CC/C(C)=C/CC[C@@](C)(O)[C@@H](I)C[C@@H]12 is greater than or equal to 20 µM.
OUTPUT: class 1

INPUT: Is TGI for CC(=O)NC1=C(C)C(=O)c2c(nc3n2CCC3O)C1=O (stereo unspecified) at or above 20 µM?
OUTPUT: class 1

INPUT: Record CNc1nc(C)c(-c2nc(Nc3cccc(S(N)(=O)=O)c3)ncc2F)s1 ; criterion: TGI no lower than 20 µM. Met?
OUTPUT: class 0

INPUT: Is TGI for S=c1nc2[nH]c3ccc(Br)cc3c2n[nH]1 at or above 20 µM?
OUTPUT: class 1

INPUT: Quick check: does CCc1nn(S(=O)(=O)c2ccc(C)cc2)c2c1CS(=O)(=O)CC2 have TGI greater than or equal to 20 µM?
OUTPUT: class 1

INPUT: Hi team, for Nc1ccc(-c2nc3cc(F)ccc3s2)cc1I , is the recorded TGI at or above 20 µM?
OUTPUT: class 1

INPUT: Has S=C1C(=Nc2ccccc2)N(c2ccccc2)/C(=N\c2ccccn2)N1c1ccccc1 a recorded TGI greater than or equal to 20 µM?
OUTPUT: class 1

INPUT: Please tell me: is the compound CC(C)(C)n1c(=O)n(C(=O)C(Cl)(Cl)Cl)n(C(=O)C(Cl)(Cl)Cl)c1=O at or over 20 µM in terms of TGI?
OUTPUT: class 1

INPUT: Given the entry CN(C)C(=S)NN=C(c1ccccn1)c1ccccn1 , answer whether its TGI meets or surpasses 20 µM.
OUTPUT: class 0

INPUT: Threshold query (TGI >= 20 µM) on O=C1c2ccccc2-c2c1c1ccc([N+](=O)[O-])cc1c(=O)n2CCNCCCNCCn1c2c(c3ccc([N+](=O)[O-])cc3c1=O)C(=O)c1ccccc1-2
OUTPUT: class 0

INPUT: Record CN(C)/C=C/c1nnnn1-c1ccc(Cl)cc1 ; criterion: TGI no lower than 20 µM. Met?
OUTPUT: class 1

INPUT: Is the recorded value of TGI equal to or greater than 20 µM for this compound? Cc1cc(=O)c2cc(N=Cc3ccc([N+](=O)[O-])o3)ccc2o1
OUTPUT: class 1

INPUT: TGI >= 20 µM for CC1CCc2c(sc3ncnc(N/N=C/c4ccc(Cl)c(Cl)c4)c23)C1 (stereo unspecified) ?
OUTPUT: class 1

====

test system: MDA-MB-231 breast; test: NCI tumour cell line growth inhibition, 48 h; in the data active means GI50 below about 0.43 µM; inactive means the rest
Your answer must be one of the following: y for active, n for inactive

Solved entries (count: 5):
compound	discrete label
CN(C)C(=S)NN=C(c1ccccn1)c1ccccn1	y
COc1ccc(Nc2ccnc(NCCNc3ccnc4cc(Cl)ccc34)n2)cc1	n
O=CN1N=C(c2ccc(Nc3ccnc4cc(Cl)ccc34)cc2)CC1c1ccccc1 (stereo not given)	n
N#Cc1c2ccccc2c2n1-c1ccccc1OC(c1ccccc1)C2=O (stereo not given)	n
CCN(CC)c1ccc(N=C2C=C(C(=O)Nc3ccc(S(C)(=O)=O)cc3)C(=O)c3ccccc32)c(C)c1	n

INPUT: Record request — test call for OCc1cccc(-c2ccc3ncc(-c4nc(NC5CC5)ncc4F)n3c2)c1
OUTPUT: y

INPUT: Tell me the recorded outcome of this test for COC(=O)Nc1nc2ccc(Oc3ccc(NC(=O)Nc4cccc(Br)c4)cc3)cc2[nH]1 .
OUTPUT: n

INPUT: Which outcome was assigned to O=C(Nc1ccc(Cl)cc1)c1cc2c(cc1O)[nH]c1ccccc12 in this test?
OUTPUT: n

INPUT: Per the assay record, what outcome was assigned to Cc1ccc2c[c]1[Hg][CH2]COS2(=O)=O ?
OUTPUT: n

INPUT: What outcome does the record of this test show for Nc1c(C(=O)c2cccc(-c3ccc[n+]([O-])c3)c2)cnn1-c1ccc(F)cc1F ?
OUTPUT: n

====

system: DU-145 prostate; experiment: NCI tumour cell line growth inhibition, 48 h
Outcome label depends on TGI relative to 3 µM: at/above gives true (1), below gives false (0).

compound	discrete label
O=C1c2ccccc2-c2c1c1ccc([N+](=O)[O-])cc1c(=O)n2CCNCCCNCCn1c2c(c3ccc([N+](=O)[O-])cc3c1=O)C(=O)c1ccccc1-2	true (1)
CCON=C1C(C)(C)C(C)(C)C(C)(C)C1(C)C	true (1)
COC(=O)c1ccccc1C#CCCCOS(C)(=O)=O	true (1)
c1cc(C2CCCCC2)ccc1OCCCCCCN1CCNCC1	true (1)
CCCCCCCCCCCCCC[P+](CCCCCC)(CCCCCC)CCCCCC	false (0)

INPUT: API: above_or_equal(metric=TGI, cutoff=3 µM) for item CC1(C)CN(c2ccccc2)C(=O)C1OC(=O)[C@@]1(C)C[C@@H]2C=C[C@H]1C2 (stereo not given in full)
OUTPUT: true (1)

INPUT: Would you say CCN(CC)CCOc1ccc(Nc2ncc3cc(-c4c(Cl)cccc4Cl)c(=O)n(CCOC)c3n2)cc1 shows TGI at minimum 3 µM?
OUTPUT: false (0)

INPUT: Hi, just wondering whether S=c1nc2[nH]c3ccc(Br)cc3c2n[nH]1 shows TGI of 3 µM or higher.
OUTPUT: true (1)

INPUT: Please tell me: is the compound O=C1CCC2(CC1CCSc1ccccc1)OCCO2 (stereo not given) at or over 3 µM in terms of TGI?
OUTPUT: true (1)
